B1: Pituitary-specific positive transcription factor 1, residues 130 to 198; numbered along this chain, P28069 (parent)
chain: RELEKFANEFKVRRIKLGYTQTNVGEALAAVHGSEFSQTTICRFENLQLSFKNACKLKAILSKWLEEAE

- Variants of: B1
- ASSAY_REMARKS: abundance fitness (aPCA) (normalised: wild type 0, dead -1); higher = more abundant; growth selection in yeast, the domain comes from the species named
- TEST_SETTINGS: Homo sapiens
Exercise: state measured abundance fitness for each of the variants provided.

Complete the entry with abundance fitness for E66T
-0.115

Complete the entry with abundance fitness for F51G
-0.39

Complete the entry with abundance fitness for G33E
-0.856

Complete the entry with abundance fitness for E2S
-0.443

Complete the entry with abundance fitness for G18Y
-0.825

Complete the entry with abundance fitness for S62K
-0.3

Complete the entry with abundance fitness for L57P
-0.89

Complete the entry with abundance fitness for T20Y
-1.17

Complete the entry with abundance fitness for E4K
-0.084

Complete the entry with abundance fitness for A27K
-0.483

Complete the entry with abundance fitness for K56S
-0.23

Complete the entry with abundance fitness for E4L
-0.579

Complete the entry with abundance fitness for A68S
-0.518

Complete the entry with abundance fitness for L17A
-0.401

Complete the entry with abundance fitness for F51H
0.077

Complete the entry with abundance fitness for E9L
-0.246

Complete the entry with abundance fitness for I15N
-0.546

Complete the entry with abundance fitness for N8V
-0.224

Complete the entry with abundance fitness for I60S
-0.568

Complete the entry with abundance fitness for A29C
-0.361

Complete the entry with abundance fitness for K16M
-0.365

Complete the entry with abundance fitness for E69Q
-0.635

Complete the entry with abundance fitness for E35I
-0.276

Complete the entry with abundance fitness for Q21L
-0.138

Complete the entry with abundance fitness for L49Y
-0.477

Complete the entry with abundance fitness for V24T
-0.625

Complete the entry with abundance fitness for E2W
-0.541

Complete the entry with abundance fitness for N8P
-0.783

Complete the entry with abundance fitness for K16Y
-0.64

Complete the entry with abundance fitness for E66H
-0.334

Complete the entry with abundance fitness for E9F
-0.239

Complete the entry with abundance fitness for L49R
-0.862

Complete the entry with abundance fitness for L49V
-0.323

Complete the entry with abundance fitness for T22A
0.357

Complete the entry with abundance fitness for A30S
-0.138

Complete the entry with abundance fitness for K5I
-0.079

Complete the entry with abundance fitness for F10R
-0.738

All figures here come from the Human Domainome abundance scans (Beltran et al. 2025).
